Assign %Inh to each entry below.
Test system: MLK3
Details: concentration: 1 μM, replicates: in singlicate; n = 1
Respond numerically; units are % and should not be typed.

response.value for `Fc1cccc(COc2ccc(Nc3ncnc4nn5ccccc5c34)cc2Cl)c1` (field: %Inh) = 0

response.value for CCCc1ccc(S(=O)(=O)NC2CCN(c3ccnc(Nc4ccc(OC)cc4)n3)C2)cc1 (stereo not drawn) (field: %Inh) = 4

response.value for `N#Cc1ccc(Oc2ccc(Nc3ncnc4cc[nH]c34)cc2Cl)cc1` (field: %Inh) = 0

response.value for `Fc1cccc(COc2ccc(Nc3ncnc4cc[nH]c34)cc2Cl)c1` (field: %Inh) = 32

response.value for `Cc1cc(N2CCC(NS(=O)(=O)c3ccc(F)cc3)CC2)nc(Nc2cccc(C#N)c2)n1.O=C(O)C(F)(F)F` (field: %Inh) = 15

response.value for `Oc1ccc2ncnc(Nc3ccc(OCc4ccccc4)cc3)c2c1` (field: %Inh) = 0

response.value for `O=C(CCO)NCCn1ccc2ncnc(Nc3ccc(Oc4cccc(C(F)(F)F)c4)c(Cl)c3)c21` (field: %Inh) = 0

response.value for `Cn1ccc2ncnc(Oc3ccc(NC(=O)Nc4cccnc4)c(Cl)c3)c21` (field: %Inh) = 0

response.value for `Cc1ccc(C)c(NC(=O)NCCNc2ccnc(Nc3ccc(F)cc3)n2)c1` (field: %Inh) = 4

====

System: MKNK2
Details: concentration: 1 μM, replicates: in singlicate; n = 1
observable: %Inh (%)
Respond numerically; units are % and should not be typed.

response.value for `C[C@@H]1CCN(C(=O)CO)C[C@@H]1N(C)c1ncnc2[nH]ccc12` (field: %Inh) = 0

response.value for `Fc1ccc(Nc2nccc(-c3c(-c4ccc(Cl)cc4)nn4ncccc34)n2)cc1F` (field: %Inh) = 2

response.value for `CS(=O)(=O)CCNCc1nc(-c2ccc3ncnc(Nc4ccc(OCc5cccc(F)c5)c(Cl)c4)c3c2)cs1.Cl` (field: %Inh) = 0

response.value for `COc1ccc(NC(=O)c2ccc(-c3cc(-c4nnc(C)o4)ccc3C)cc2)cc1` (field: %Inh) = 12

response.value for `Fc1cccc(COc2ccc(Nc3ncnc4sc(-c5ccc[nH]5)cc34)cc2Cl)c1` (field: %Inh) = 2

====

Assign %Inh to each entry below.
System: PCTK2
Construct: gene CDK17
Details: concentration: 1 μM, replicates: in singlicate; n = 1
Respond numerically; units are % and should not be typed.

response.value for Clc1cccc(-c2nc(Nc3ccncc3)c3ccccc3n2)c1 [GW873004] (field: %Inh) = 0

response.value for Cc1cc(N2CCC(NS(=O)(=O)c3ccc(F)cc3)CC2)nc(Nc2cccc(C#N)c2)n1.O=C(O)C(F)(F)F [GSK1653537] (field: %Inh) = 0

response.value for COc1ccc(Nc2nccc(N3CCC(NC(=O)c4cccc(NC(C)=O)c4)C3)n2)cc1 (stereo not drawn) [GSK1379732] (field: %Inh) = 10

response.value for Cl.c1ccc(Cn2ccc3cc(Nc4ncnc5ccccc45)ccc32)cc1 [GW275568] (field: %Inh) = 16

response.value for CCn1c(-c2ccncc2)nc2cnccc21 [SB-735216] (field: %Inh) = 0

response.value for `COC(=O)c1c(-c2ccccc2)c2cc(Cl)ccc2c(=O)n1Cc1ccc(S(C)(=O)=O)cc1` (field: %Inh) = 3

response.value for Nc1n[nH]c2nnc(-c3ccccc3)cc12 [SB-517389] (field: %Inh) = 20

response.value for Fc1cccc(COc2ccc(Nc3ncnc4nn5ccccc5c34)cc2Cl)c1 [GW689066] (field: %Inh) = 0

response.value for CN1CCC(n2cnc(-c3ccc(F)cc3)c2-c2ccnc(NC3CCNCC3)n2)CC1 [SB-229482] (field: %Inh) = 0

response.value for COc1ccc(NC(=O)Nc2ccc(C)c(-c3ccc(C(=O)Nc4ccncc4)cc3)c2)cc1 [GSK1398475] (field: %Inh) = 0

response.value for Nc1nc(-c2ccc3c(N)n[nH]c3c2)cc(N2CCC[C@@H](C(=O)Nc3ccccc3)C2)n1.O=C(O)C(F)(F)F.O=C(O)C(F)(F)F [GSK2288359] (field: %Inh) = 8

response.value for Oc1ccc2ncnc(Nc3ccc(OCc4ccccc4)cc3)c2c1 [GI262866] (field: %Inh) = 0

response.value for CSc1nn2c(=O)cc(N3CCOCC3)nc2n1Cc1cccc(Cl)c1Cl [GSK2347225] (field: %Inh) = 0

response.value for COc1ccc(NC(=O)c2ccc(-c3cc(-c4nnc(C)o4)ccc3C)cc2)cc1 [GW595885] (field: %Inh) = 0

response.value for `O=C(Nc1ccccc1)Nc1ccc(Oc2ccc3nccn3n2)cc1` (field: %Inh) = 2

====

Test system: FGFR2;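 further: kd values determined as follow-up on hits from a single-replicate KINOMEscan panel screen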
pKd: −log10 of the molar value.
observable: pKd

response.value for CCC(CC)(CC)n1cnc2c(N)ncnc21 [SKF-97620] (field: pKd) = < 5.00

====

Test system: KIT-autoinhibited
Settings: concentration: 1 μM, replicates: in singlicate; n = 1
observable: %Inh (%)
Respond numerically; units are % and should not be typed.

response.value for `O=C(Nc1ccccc1)Nc1ccc(Oc2ccc3nccn3n2)cc1` (field: %Inh) = 28

response.value for CC(=O)Nc1n[nH]c2ncc(-c3ccccc3)cc12 [SB-548492] (field: %Inh) = 21

response.value for Cl.c1ccc(Cn2ncc3cc(Nc4ncnc5ccccc45)ccc32)cc1 [GW273749] (field: %Inh) = 0

response.value for Cl.c1ccc(Cn2ccc3cc(Nc4ncnc5ccccc45)ccc32)cc1 [GW275568] (field: %Inh) = 0

response.value for NC(=O)c1sc(-n2cnc3ccccc32)cc1OCc1ccccc1F [GSK1024306] (field: %Inh) = 0

response.value for Cn1cc(-c2ccc3c(c2)CCN3C(=O)Cc2cccc(C(F)(F)F)c2)c2c(N)ncnc21 [GSK2606414] (field: %Inh) = 0

response.value for `Cn1ccc2ncnc(Oc3ccc(NC(=O)Nc4cccnc4)c(Cl)c3)c21` (field: %Inh) = 0

response.value for Nc1nccc2scc(-c3ccc4c(c3)CCN4C(=O)Cc3cc(F)ccc3F)c12 [GSK2587663] (field: %Inh) = 0

response.value for Cc1ccc(O)cc1Nc1cc(C(F)(F)F)nc2ccc(-c3ccncc3)cc12 [GW630823] (field: %Inh) = 0

====

System: TIE1
Details: concentration: 1 μM, replicates: in singlicate; n = 1
// assign met if %Inh falls strictly below 3%, else not met (ties count as not met)

Here's an entry: CCC(CC)(CC)n1cnc2c(N)ncnc21 [SKF-97620] . Is its %Inh below 3%?
not met

Here's an entry: Cc1cccc(-c2nc(Nc3ccc4[nH]nnc4c3)c3ccccc3n2)n1 [GW867587] . Is its %Inh below 3%?
met

Here's an entry: `Clc1cc(Nc2ncnc3cc[nH]c23)ccc1OCc1ccccn1` . Is its %Inh below 3%?
not met

Here's an entry: CN1CCC(n2cnc(-c3ccc(F)cc3)c2-c2ccnc(NC3CCNCC3)n2)CC1 [SB-229482] . Is its %Inh below 3%?
met

Here's an entry: Cl.O=S(=O)(c1cccc(F)c1)c1ccc(Nc2ncnc3cc(Br)sc23)cc1Cl [GSK306886] . Is its %Inh below 3%?
met

Here's an entry: `O=C(Nc1ccccc1)Nc1ccc(Oc2ccc3nccn3n2)cc1` . Is its %Inh below 3%?
not met

Here's an entry: Fc1cccc(COc2ccc(Nc3ncnc4sc(-c5ccc[nH]5)cc34)cc2Cl)c1 [GW707818] . Is its %Inh below 3%?
met

Here's an entry: `Cn1ccc2ncnc(Oc3ccc(NC(=O)Nc4cccnc4)c(Cl)c3)c21` . Is its %Inh below 3%?
not met

Here's an entry: `O=C(CCO)NCCn1ccc2ncnc(Nc3ccc(Oc4cccc(C(F)(F)F)c4)c(Cl)c3)c21` . Is its %Inh below 3%?
met

Here's an entry: CCn1c(-c2ccncc2)nc2cnccc21 [SB-735216] . Is its %Inh below 3%?
met

Here's an entry: Cc1ccc(NC(=O)c2cccc(C#N)c2)cc1-c1ccc(C(=O)Nc2ccncc2)cc1 [GSK1398463] . Is its %Inh below 3%?
not met

Here's an entry: COc1ccc(Nc2nccc(N3CCC(NC(=O)c4cccc(NC(C)=O)c4)C3)n2)cc1 (stereo not drawn) [GSK1379732] . Is its %Inh below 3%?
met

Here's an entry: O=C(Nc1n[nH]c2nc(-c3ccco3)c(Br)cc12)c1ccc(CN2CCCC2)cc1.O=C(O)[C@H](O)[C@@H](O)C(=O)O [SB-742352] . Is its %Inh below 3%?
met

Here's an entry: CCCc1ccc(S(=O)(=O)NC2CCN(c3ccnc(Nc4ccc(OC)cc4)n3)C2)cc1 (stereo not drawn) [GSK1379737] . Is its %Inh below 3%?
not met

Here's an entry: CC(C)(C)c1ccc(-n2cnc3c(N)ncnc32)cc1 [SKF-97263] . Is its %Inh below 3%?
not met

Here's an entry: FC(F)(F)c1cc(Nc2nccc(-c3c(-c4ccc(Cl)cc4)nn4ncccc34)n2)ccc1Cl [GW829351] . Is its %Inh below 3%?
met
